- tested on: PKN2 (Homo sapiens)
- Construct: PKN2- Uniprot ID Q16513 (Ser646-Cys984); biotin tag attachment site ([…]; made in house; host or cells: Sf9 insect cells (baculovirus)
- Sequence (Q16513 646-984): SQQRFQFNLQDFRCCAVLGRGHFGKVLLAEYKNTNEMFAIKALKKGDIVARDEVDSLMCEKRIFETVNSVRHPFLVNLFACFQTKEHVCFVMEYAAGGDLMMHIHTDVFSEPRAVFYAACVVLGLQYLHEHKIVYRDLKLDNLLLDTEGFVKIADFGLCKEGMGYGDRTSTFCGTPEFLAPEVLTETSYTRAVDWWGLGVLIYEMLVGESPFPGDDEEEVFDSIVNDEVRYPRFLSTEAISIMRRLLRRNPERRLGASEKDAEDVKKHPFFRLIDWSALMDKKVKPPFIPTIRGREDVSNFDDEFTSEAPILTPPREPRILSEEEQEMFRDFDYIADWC
- Format: binding
- conditions: relative to compound 5
quantity measured: activity against PKN2 in words (SAR discussion)

>  <compound>
NC(=O)c1cccc2[nH]c(-c3cncnc3)nc12 [Compound 8]

>  <result>
loss of activity

$$$$
>  <compound>
COc1cc(-c2nc3c(C(N)=O)cccc3[nH]2)ccn1 [Compound 9]

>  <result>
loss of activity

$$$$
>  <compound>
c1ccc2[nH]c(-c3ccncc3)nc2c1 [Compound 13, 2-(4-Pyridyl)-1H-benzimidazole]

>  <result>
loss of activity

$$$$
